- measured.on: 3-keto-steroid reductase/17-beta-hydroxysteroid dehydrogenase 7 (Homo sapiens) (UniProt P56937)
- Sequence (whole entry): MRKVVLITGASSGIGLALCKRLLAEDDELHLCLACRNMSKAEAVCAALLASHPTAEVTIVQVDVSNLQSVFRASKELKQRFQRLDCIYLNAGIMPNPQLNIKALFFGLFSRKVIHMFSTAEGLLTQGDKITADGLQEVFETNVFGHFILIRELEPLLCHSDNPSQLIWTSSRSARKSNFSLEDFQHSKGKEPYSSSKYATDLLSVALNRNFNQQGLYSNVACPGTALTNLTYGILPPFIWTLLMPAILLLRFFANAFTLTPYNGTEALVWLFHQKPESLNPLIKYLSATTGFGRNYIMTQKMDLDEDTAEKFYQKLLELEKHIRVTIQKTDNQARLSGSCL
- condition.label: HEK293, at 0.3 µM
- Description: Inhibition of human 17beta-HSD7 expressed in HEK293 cells assessed as inhibition of reduction of [14C]estrone into [14C]estradiol at 0.3 uM after 7 hrs
metric: inhibition (%)
Respond numerically; units are % and should not be typed.

Guide cases for inhibition, answers given:
molecular_string=CCS(=O)(=O)Oc1ccc2c(c1)CC[C@@H]1[C@@H]2CC[C@@]2(C)[C@H]1CC[C@@]21CCC(C)(C)C(=O)O1 metric=inhibition measured_value=21
molecular_string=CCCCCCCN(C(=O)c1ccc(F)cc1)[C@H]1CC[C@H]2[C@@H]3CC[C@H]4N(C)C(=O)CC[C@]4(C)[C@H]3CC[C@]12C metric=inhibition measured_value=84
molecular_string=COc1cc2c(cc1O)CC[C@@H]1[C@@H]2CC[C@]2(C)C(=O)CC[C@@H]12 metric=inhibition measured_value=18.4
molecular_string=CC1(C)CC[C@@]2(CC[C@H]3[C@@H]4CCc5cc(C(N)=O)ccc5[C@H]4CC[C@@]32C)OC1=O metric=inhibition measured_value=11.6
molecular_string=CCCNC(=O)N(C)[C@H]1CC[C@H]2[C@@H]3CC[C@H]4N(C)C(=O)CC[C@]4(C)[C@H]3CC[C@]12C metric=inhibition measured_value=2.7

Kindly review the next compound as well.
Lookup: Name the reported inhibition value associated with the compound "CCCCCCCN(C(=O)c1ccccc1Cl)[C@H]1CC[C@H]2[C@@H]3CC[C@H]4N(C)C(=O)CC[C@]4(C)[C@H]3CC[C@]12C"
Found: 37

----------
Form field: inhibition (one value per entry).
- measured.on: 3-keto-steroid reductase/17-beta-hydroxysteroid dehydrogenase 7 (Homo sapiens) (UniProt P56937)
- Sequence (whole entry): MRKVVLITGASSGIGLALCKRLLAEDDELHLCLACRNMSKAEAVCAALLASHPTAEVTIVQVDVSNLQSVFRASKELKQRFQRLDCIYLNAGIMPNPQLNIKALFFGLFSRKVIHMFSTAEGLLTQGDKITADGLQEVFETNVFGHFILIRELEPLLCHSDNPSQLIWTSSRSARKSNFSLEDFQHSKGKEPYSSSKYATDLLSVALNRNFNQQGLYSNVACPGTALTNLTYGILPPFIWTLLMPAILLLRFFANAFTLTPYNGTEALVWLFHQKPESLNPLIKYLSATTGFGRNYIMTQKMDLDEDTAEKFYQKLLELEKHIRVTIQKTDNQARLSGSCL
- condition.label: HEK293, at 0.3 µM
Respond numerically; units are % and should not be typed.

compound=CC(C)(C)NC(=O)[C@H]1CC[C@H]2[C@@H]3CC=C4C=C(Cl)CC[C@]4(C)[C@H]3CC[C@]12C unit_of_measurement=% measured_value=13.4

Lookup: Name the reported inhibition value associated with the compound "CCC[C@]1(O)CC[C@H]2[C@@H]3CC[C@H]4N(C)C(=O)CC[C@]4(C)[C@H]3CC[C@@]21C"
Found: 47.6

Lookup: Further, for "CC1(C)C[C@@]2(CC[C@H]3[C@@H]4CCc5cc(O)ccc5[C@H]4CC[C@@]32C)OC1=O" ?
Found: 14.5

Lookup: Further, for "CCCCCCCCCCN(C(=O)c1c(F)cccc1F)[C@H]1CC[C@H]2[C@@H]3CC[C@H]4N(C)C(=O)CC[C@]4(C)[C@H]3CC[C@]12C" ?
Found: 77

Reference source: ChEMBL document CHEMBL1154295
